# target_under_test: Histone deacetylase 11 (Homo sapiens)
# Sequence (Q96DB2 whole entry): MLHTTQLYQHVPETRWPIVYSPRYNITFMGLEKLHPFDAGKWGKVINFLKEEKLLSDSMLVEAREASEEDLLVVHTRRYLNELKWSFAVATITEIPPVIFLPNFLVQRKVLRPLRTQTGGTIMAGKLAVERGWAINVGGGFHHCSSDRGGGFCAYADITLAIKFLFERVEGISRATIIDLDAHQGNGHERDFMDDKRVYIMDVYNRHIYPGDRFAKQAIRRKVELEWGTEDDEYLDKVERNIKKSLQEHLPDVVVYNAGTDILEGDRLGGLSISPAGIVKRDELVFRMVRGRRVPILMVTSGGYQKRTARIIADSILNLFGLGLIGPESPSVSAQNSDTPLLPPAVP
pIC50: −log10 of the molar value. Square brackets hold non-standard residues; d marks the D form. Peptide text beside a SMILES is read from it. * marks the point of attachment. Asu = N[C@@H](CCCCCC(=O)O)C(=O)O; pGlu = O=C1CC[C@@H](C(=O)O)N1; NHPh = c1ccc(N*)cc1; NHOH = ON*
readout_name: pIC50

# count of solved cases: 2
O=C(CCCCC[C@H](NC(=O)[C@@H]1CCC(=O)N1)C(=O)Nc1ccccc1)NO ([pGlu]-[Asu](NHOH)-NHPh)
7.89
Cc1cccc(NC(=O)[C@H](CCCCCC(=O)NO)NC(=O)[C@H]2CCC(=O)N2)c1
7.82

(a) O=C1CC[C@H](C(=O)N[C@@H](CCCCCS)C(=O)Nc2ccccc2)N1
(b) O=C(CCCCC[C@H](NC(=O)[C@@H]1CC(=O)N1)C(=O)Nc1ccccc1)NO
Ask | // compare: a vs b , metric pIC50, want the smaller Indicate your choice by writing its label.
Reply | b
(b: 7.43, a: 7.85)
